System: LOC_OS05G30820-cb001
Protocol Summary: thermal shift delta Tm vs DMSO control; higher = stronger stabilization (binding);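 note: purified Escherichia coli-expressed rice kinase domain construct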
Assay Context: 12.5 µM; protein concentration 2 µM
Counter-ions that a name gives are not always drawn.
Label Met when thermal shift delta Tm >= 0.7 °C; otherwise Not met.

Compound: N#CC[C@H](C1CCCC1)n1cc(-c2ncnc3[nH]ccc23)cn1
Qualitative Label: Met
//
Compound: c1cn2cc(-c3ccc4cn[nH]c4c3)nc(Nc3ccc(N4CCOCC4)cc3)c2n1 [Entospletinib (GS-9973)]
Qualitative Label: Met
//
Compound: CO[C@H]1C[C@@H]2CC[C@@H](C)[C@@](O)(O2)C(=O)C(=O)N2CCCC[C@H]2C(=O)O[C@H]([C@H](C)C[C@@H]2CC[C@@H](OCCO)[C@H](OC)C2)CC(=O)[C@H](C)/C=C(\C)[C@@H](O)[C@@H](OC)C(=O)[C@H](C)C[C@H](C)/C=C/C=C/C=C/1C [Everolimus (RAD001)]
Qualitative Label: Not met
//
Compound: O=C1CCc2c(Oc3ccc4c(c3)[C@@H]3[C@H](O4)[C@H]3c3nc4cc(C(F)(F)F)ccc4[nH]3)ccnc2N1 [Lifirafenib (BGB-283)]
Qualitative Label: Not met
//
Compound: O=C(c1ccc(Nc2nccc(-c3cc4ccccc4s3)n2)cc1)N1CCC(N2CCCC2)CC1 [IKK-16 (IKK Inhibitor VII)]
Qualitative Label: Met
//
Compound: O=C1c2c(O)cc(O)cc2OC(c2ccc(O)c(O)c2)C1O (stereo not given) [Taxifolin (Dihydroquercetin)]
Qualitative Label: Met
//
Compound: CCCNC(=O)c1cn2ncnc(Nc3cc(C(=O)NC4CC4)ccc3C)c2c1C
Qualitative Label: Not met
//
Compound: Cc1ccc(-n2nc(C(C)(C)C)cc2NC(=O)NCc2cc(F)ccc2Oc2ccc3c(cnn3CCO)c2)cc1 [Pexmetinib (ARRY-614)]
Qualitative Label: Not met
//
Compound: CN(C)Cc1cccc(N/C(=C2\C(=O)Nc3cc(C(N)=O)ccc32)c2ccccc2)c1
Qualitative Label: Not met
//
Compound: COc1ccc(-c2cc3c(C)nc(N)nc3n([C@H]3CC[C@H](OCCO)CC3)c2=O)cn1
Qualitative Label: Met
//
Compound: O=c1c(O)c(-c2cc(O)c(O)c(O)c2)oc2cc(O)cc(O)c12 [Myricetin]
Qualitative Label: Met
//
Compound: OCCn1cc(-c2ccc3c(c2)CC/C3=N\O)c(-c2ccncc2)n1
Qualitative Label: Not met
//
Compound: CCNC(=O)Nc1ccc(-c2nc3c(c(N4CCOC[C@@H]4C)n2)CCN(C2COC2)C3)cc1
Qualitative Label: Not met
//
Compound: COc1cc(F)c(F)c(Nc2ccc(I)cc2F)c1NS(=O)(=O)C1(C[C@H](O)CO)CC1 [Refametinib (RDEA119, Bay 86-9766)]
Qualitative Label: Not met
//
Compound: Cc1cc(O)c(-c2ccc([C@@H](C)CN)cc2)c2c1[nH]c(=O)c1sccc12 [OTS514 hydrochloride]
Qualitative Label: Not met

* * *

System: LOC_OS01G70970-cb002
Protocol Summary: thermal shift delta Tm vs DMSO control; higher = stronger stabilization (binding)
Assay Context: 12.5 µM; protein concentration 2 µM
Readout Name: thermal shift delta Tm (°C)

Compound: CCn1c(-c2nonc2N)nc2c(C#CC(C)(C)O)ncc(OC[C@H]3CCCNC3)c21
Readout Name: thermal shift delta Tm
Numeric Readout: 0.35

Compound: Cc1cc2c(F)c(Oc3ncnn4cc(OC[C@@H](C)O)c(C)c34)ccc2[nH]1
Readout Name: thermal shift delta Tm
Numeric Readout: 0.52

Compound: Cc1nc(Nc2n[nH]c3c2CN(C(=O)N[C@H](CN(C)C)c2ccccc2)C3(C)C)c2sccc2n1
Readout Name: thermal shift delta Tm
Numeric Readout: 0.38

Compound: CCN(CC)CCCC(C)Nc1ccnc2cc(Cl)ccc12 (stereo not given) [Chloroquine Phosphate]
Readout Name: thermal shift delta Tm
Numeric Readout: -0.07

Compound: CO[C@@H](C(=O)N1Cc2[nH]nc(NC(=O)c3ccc(N4CCN(C)CC4)cc3)c2C1)c1ccccc1
Readout Name: thermal shift delta Tm
Numeric Readout: 1.38
